Sourced from PubChem BioAssay

Experiment description: viability rescue of complex I mutant cybrids, primary screen, cell-based, galactose medium, ATP luminescence (AID 1645843);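 also: positive z means more ATP and so rescue of galactose-driven cybrid death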
Study conditions: complex I mutant cybrid cells, 72 h, hits give high values
z-score values for the compounds below.
Result type: z-score

Compound	Result type	Meas value
Nc1ccc(S(=O)(=O)Nc2ncccn2)cc1	z-score	-0.065
Cc1c(C)c2c(c(C)c1O)CCC(C)(COc1ccc(CC3SC(=O)NC3=O)cc1)O2 (centres undefined)	z-score	0.175
CCC(=O)OCC(=O)[C@@]1(OC(=O)CC)[C@@H](C)C[C@H]2[C@@H]3CCC4=CC(=O)C=C[C@]4(C)[C@@]3(Cl)[C@@H](O)C[C@@]21C	z-score	-1.24
Cc1occc(=O)c1O	z-score	0.51
C[C@@H](O[C@H]1OCCN(Cc2n[nH]c(=O)[nH]2)[C@H]1c1ccc(F)cc1)c1cc(C(F)(F)F)cc(C(F)(F)F)c1	z-score	-0.16
CN(C)CCCSc1ccccc1NC(=O)C=Cc1ccccc1	z-score	-0.13
COc1cc(C2c3cc4c(cc3C(OC3OC5COC(C)OC5C(O)C3O)C3COC(=O)C23)OCO4)cc(OC)c1O (centres undefined)	z-score	-1.39
O=C1OC(OC(=O)c2cccnc2Nc2cccc(C(F)(F)F)c2)c2ccccc21 (centres undefined)	z-score	-0.625
O=C1c2ccccc2S(=O)(=O)N1CCCCN1CCN(c2ncccn2)CC1	z-score	0.135
